- system name: human CCR8 (human, UniProt P51685 1-355)
- test protocol: cell-based or functional assay
assay readout: residual hCCL1 (100 nM) Gi2 response, protocol #2, mAb 0.4 µg/mL

[[record]]
binder = "anti-CCR8 mAb 1-10 (antibody, V domains shown, Murine hybridoma mAb) VH: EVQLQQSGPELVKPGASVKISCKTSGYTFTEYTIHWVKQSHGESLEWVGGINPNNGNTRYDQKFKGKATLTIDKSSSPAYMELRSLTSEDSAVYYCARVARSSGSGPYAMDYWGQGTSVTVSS VL: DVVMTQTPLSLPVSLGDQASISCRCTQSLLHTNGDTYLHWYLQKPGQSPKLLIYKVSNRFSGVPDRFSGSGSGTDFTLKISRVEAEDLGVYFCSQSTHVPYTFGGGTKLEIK"
result = "46%"


[in] Find the recorded residual hCCL1 (100 nM) Gi2 response, protocol #2, mAb 0.4 µg/mL belonging to anti-CCR8 mAb 1-7 (antibody, V domains shown, Murine hybridoma mAb) VH: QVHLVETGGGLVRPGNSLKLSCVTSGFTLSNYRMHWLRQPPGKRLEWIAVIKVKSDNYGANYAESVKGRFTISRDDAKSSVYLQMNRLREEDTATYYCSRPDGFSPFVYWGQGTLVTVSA VL: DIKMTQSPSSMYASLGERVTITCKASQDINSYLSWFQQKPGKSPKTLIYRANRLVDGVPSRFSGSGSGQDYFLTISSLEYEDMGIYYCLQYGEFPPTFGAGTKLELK and report it.
[out] 51%
